Assay: Oral bioavailability in ICR mouse at 10 mg/kg
Type: ADME, organism-based
Conditions: in vivo
ASSAY METRIC: bioavailability (%)
Give bare numbers, in %.

# input molecule: C=CC(=O)Nc1cc(Nc2nccc(-c3cn(C)c4ccccc34)n2)c(OC)cc1[S+]([O-])CCN(C)C (single isomer, unassigned; (-)) ; wanted: its bioavailability 73.7

---

Test system: PC-9
Assay: Antiproliferative activity against human PC9 cells expressing EGFR L858R mutant assessed as reduction in cell viability incubated for 72 hrs by MTT assay
Type: functional, cell-based
Conditions: pc-9
ASSAY METRIC: IC50
Returns: string containing the numeric result and its unit.

{"MOLECULE": "C=CC(=O)Nc1cc(Nc2nccc(-c3cn(C)c4ccccc34)n2)c(OC)cc1[S+]([O-])CCN(C)C (stereo in doubt; (+)-4i)", "IC50": "18 nM"}

Now turn to the next molecule.
So what IC50 did C=CC(=O)Nc1cc(Nc2nccc(-c3cn(C)c4ccccc34)n2)c(OC)cc1[S+]([O-])CCN(C)C (single isomer, unassigned; (-)) get with PC-9? 15 nM

---

Tested on: L02
Assay: Cytotoxicity against human LO2 cells expressing EGFR assessed as reduction in cell viability incubated for 72 hrs by MTT assay
Type: cell-based
Conditions: L02, 72 h
ASSAY METRIC: IC50 (nM)
Give bare numbers, in nM.

# input compound: `C=CC(=O)Nc1cc(Nc2nccc(-c3cn(C)c4ccccc34)n2)c(OC)cc1N(C)CCN(C)C` ; wanted: its IC50 1600

---

Assay: Clearance in ICR mouse at 5 mg/kg, iv
Format: ADME, organism-based
Conditions: in vivo
ASSAY METRIC: clearance (mL/min/kg)
One number for each entry, in mL/min/kg.

# input molecule: C=CC(=O)Nc1cc(Nc2nccc(-c3cn(C)c4ccccc34)n2)c(OC)cc1[S+]([O-])CCN(C)C (single isomer, unassigned; (-)) ; wanted: its clearance 63.9

---

Experiment: Selectivity index, ratio of IC50 for human BJ cells to IC50 for human NCI-H1975 cells expressing EGFR T790M/L858R mutant
Assay type: toxicity
Conditions: read-out: Ratio IC50
ASSAY METRIC: selectivity ratio

# input molecule: C=CC(=O)Nc1cc(Nc2nccc(-c3cn(C)c4ccccc34)n2)c(OC)cc1[S+]([O-])CCN(C)C (racemic) ; wanted: its selectivity ratio > 769

---

Assay: Half life in ICR mouse at 10 mg/kg, po
Type: ADME, organism-based
Settings: in vivo
ASSAY METRIC: half-life (h)
Give bare numbers, in h.

# input compound: C=CC(=O)Nc1cc(Nc2nccc(-c3cn(C)c4ccccc34)n2)c(OC)cc1[S+]([O-])CCN(C)C (single isomer, unassigned; (-)) ; wanted: its half-life 1.73

---

Test: Selectivity index, ratio of IC50 for human HEK293A cells to IC50 for human NCI-H1975 cells expressing EGFR T790M/L858R mutant
Assay type: toxicity
Details: read-out: Ratio IC50
ASSAY METRIC: selectivity ratio
Answers are plain numbers.

# input molecule: C=CC(=O)Nc1cc(Nc2nccc(-c3cn(C)c4ccccc34)n2)c(OC)cc1[S+]([O-])CCN(C)C (racemic) ; wanted: its selectivity ratio 322

---

Target: UniProt:P00533
Sequence (P00533 whole entry): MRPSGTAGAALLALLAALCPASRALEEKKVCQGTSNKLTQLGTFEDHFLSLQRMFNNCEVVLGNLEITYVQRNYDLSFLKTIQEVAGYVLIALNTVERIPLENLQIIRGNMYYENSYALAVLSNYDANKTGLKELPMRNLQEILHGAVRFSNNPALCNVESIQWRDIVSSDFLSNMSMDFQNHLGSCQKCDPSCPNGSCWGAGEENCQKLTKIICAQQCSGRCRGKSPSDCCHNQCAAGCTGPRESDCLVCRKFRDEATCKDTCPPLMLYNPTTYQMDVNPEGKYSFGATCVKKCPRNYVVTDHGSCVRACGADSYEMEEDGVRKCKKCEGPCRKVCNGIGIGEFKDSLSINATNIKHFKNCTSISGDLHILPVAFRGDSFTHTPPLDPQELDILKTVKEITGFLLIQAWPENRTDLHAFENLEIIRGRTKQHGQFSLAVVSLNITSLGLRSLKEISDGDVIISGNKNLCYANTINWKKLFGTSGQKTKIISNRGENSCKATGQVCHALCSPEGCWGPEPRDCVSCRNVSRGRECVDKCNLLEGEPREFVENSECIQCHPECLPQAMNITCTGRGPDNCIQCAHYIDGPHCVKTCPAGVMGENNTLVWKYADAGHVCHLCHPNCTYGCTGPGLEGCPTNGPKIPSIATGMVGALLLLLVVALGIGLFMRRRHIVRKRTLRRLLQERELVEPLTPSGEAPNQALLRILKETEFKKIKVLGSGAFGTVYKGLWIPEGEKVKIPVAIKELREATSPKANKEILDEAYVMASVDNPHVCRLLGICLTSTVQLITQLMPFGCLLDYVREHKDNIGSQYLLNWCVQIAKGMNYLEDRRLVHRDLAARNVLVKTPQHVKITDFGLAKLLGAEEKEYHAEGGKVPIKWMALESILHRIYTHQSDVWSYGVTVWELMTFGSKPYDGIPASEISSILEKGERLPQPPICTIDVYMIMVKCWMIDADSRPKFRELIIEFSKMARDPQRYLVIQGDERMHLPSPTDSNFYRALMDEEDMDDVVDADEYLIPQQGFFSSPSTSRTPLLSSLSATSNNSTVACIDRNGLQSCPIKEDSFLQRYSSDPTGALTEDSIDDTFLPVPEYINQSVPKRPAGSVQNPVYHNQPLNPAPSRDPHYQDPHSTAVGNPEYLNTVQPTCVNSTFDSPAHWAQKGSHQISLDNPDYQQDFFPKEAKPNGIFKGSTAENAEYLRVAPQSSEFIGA
Experiment: Inhibition of EGFR in human NCI-H292 cells assessed as reduction in EGFR Y1068 phosphorylation at incubated for 4 hrs by Western blot analysis
ASSAY METRIC: EC50
Returns: string containing the numeric result and its unit.

# input molecule: C=CC(=O)Nc1cc(Nc2nccc(-c3cn(C)c4ccccc34)n2)c(OC)cc1[S+]([O-])CCN(C)C (single isomer, unassigned; (-)) ; wanted: its EC50 90.2 nM
